- TARGET OR SYSTEM: T1, TBD-1 wt
- T1 construct: Fab; the heavy chain entry is VH-CH1; also called wild-type anti-TROP2 Fab (hRS7); TROP2 Fab
- EXPERIMENTAL DETAILS: competition ELISA, peptide vs Fab binding to captured biotin-TROP2
Where no end group is shown, it is not given here.
QUANTITY KIND: IC50 (µM)

Examples with answers:
• VDFCELYRWPICNS (cysteine pairing not given here; also: biotinylated (site not given here)) [Peptide-13] = 1.01
• VDFCKIYSWPVCHQ (cysteine pairing not given here; also: biotinylated (site not given here)) [Peptide-25] = 2.58
• IDFCMLYNWPICAG (cysteine pairing not given here; also: biotinylated, site not given here) [Peptide-3] = 0.34

A: VDFCKIYAWPICGS (cysteine pairing not given here; also: biotinylated, site not given here) [Peptide-4]
B: SYLVCVKNVYCWTA (cysteine pairing not given here; also: biotinylated, site not given here) [Peptide-29]
C: TSLICFRNVYCWNV (cysteine pairing not given here; also: biotinylated, site not given here) [Peptide-30]
D: YSLVCVKNLYCWNL (cysteine pairing not given here; also: biotinylated, site not given here) [Peptide-31]
Output the entries ranked by IC50 from maximum down to minimum. Use the labels to give the requested order.
D, C, B, A

A: FSLVCVRNLYCWNV (cysteine pairing not given here; also: biotinylated, site not given here) [Peptide-27]
B: NYLLCVKNLYCWIV (cysteine pairing not given here; also: biotinylated, site not given here) [Peptide-28]
# query: argmin of IC50 over A and B // return label of chosen record
A

a: MDFCQIYDWPICRL (cysteine pairing not given here; also: biotinylated (site not given here)) [Peptide-18]
b: DNLICVKNLWCWIA (cysteine pairing not given here; also: biotinylated, site not given here) [Peptide-26]
c: PDFCAVYRWPICYQ (cysteine pairing not given here; also: biotinylated (site not given here)) [Peptide-12]
Order by IC50, ascending. Use the labels to give the requested order.
c, a, b
